# key: entry, value: shrunken log2 fold change
# Tested on: Escherichia coli TOP10;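 note: peptides expressed intracellularly from a pBAD plasmid library in pooled LB shake-flask culture, induced with 0.3% L-arabinose, DNA abundance read by NGS, three biological replicates, DESeq2 with apeglm shrinkage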
# Experiment Notes: shrunken log2 fold change of peptide-encoding DNA abundance (4.5 h post-induction vs induction); higher = less antimicrobial activity (less host growth inhibition)
# Conditions Used: time post-induction: 4.5 h; library: site-saturation at positions 5, 18, 19, 20
Lab note: jot the number down without any unit.

Some entries whose results are on file:
Exam item: Any idea what shrunken log2 fold change was measured for RRIRMRPPRLPRPRPRPPTQPRP ?
Marked response: 0.785

Exam item: Lookup RRIRYRPPRLPRPRPRPMKYPRP
Marked response: -0.00968

Exam item: Moving on to RRIRARPPRLPRPRPRPSGYPRP
Marked response: 0.094

Exam item: Try this sequence next: RRIRSRPPRLPRPRPRPETKPRP
Marked response: 0.187

Others:
Exam item: Consider the sequence RRIRYRPPRLPRPRPRPCILPRP and give its measured shrunken log2 fold change.
Marked response: 0.00867

Exam item: And the next one, RRIRVRPPRLPRPRPRPHRLPRP ?
Marked response: -0.0912

Exam item: Here is the next sequence: RRIRYRPPRLPRPRPRPDQQPRP
Marked response: -0.0144
